assay: qHTS Screen of the MIPE 4.0 Collection Against Ewings Sarcoma (TC71) (AID 1259253); conditions: TC71 Ewing sarcoma viability, CellTiter-Glo, 48 h; series mostly up to 45.8 µM; also: nearly all actives have a fitted effect of over 40% in size
Inconclusive results are not listed. The source made the active and inactive calls. Calls follow the shape of the dose curve; as a rule, active = well fitted inhibition curve with a large enough effect; inconclusive = small, poorly fitted or top-dose-only effect; inactive = no such curve, though single readings can be large or run the other way.
Field 'call' accepts true (1) = active, false (0) = inactive

Exercise: Check the results log: what was the call for OC(c1cc(C(F)(F)F)nc2c(C(F)(F)F)cccc12)C1CCCCN1 (configuration not stated) ?
Key: true (1)

Exercise: Check the results log: what was the call for COc1c(C)c2c(c(O)c1CC=C(C)CCC(=O)OCCN1CCOCC1)C(=O)OC2 ?
Key: true (1)

Exercise: Check the results log: what was the call for CN1CCN2c3ncccc3Cc3ccccc3C2C1 (configuration not stated) ?
Key: false (0)

Exercise: Check the results log: what was the call for NC(=O)c1ccc(N(C(N)=O)c2c(F)cccc2F)nc1-c1ccc(F)cc1F ?
Key: false (0)

Exercise: Check the results log: what was the call for C[C@@H](O[C@H]1OCCN(Cc2n[nH]c(=O)[nH]2)[C@@H]1c1ccc(F)cc1)c1cc(C(F)(F)F)cc(C(F)(F)F)c1 ?
Key: true (1)

Exercise: Check the results log: what was the call for Cc1ccccc1-n1c(Cn2nc(-c3cccc(O)c3)c3c(N)ncnc32)nc2cccc(C)c2c1=O ?
Key: true (1)

Exercise: Check the results log: what was the call for N[C@@H](CC(=O)N1CCn2c(nnc2C(F)(F)F)C1)Cc1cc(F)c(F)cc1F ?
Key: true (1)

Exercise: Check the results log: what was the call for COc1ccnc(CS(=O)c2nc3ccc(OC(F)F)cc3[nH]2)c1OC (configuration not stated) ?
Key: false (0)

Exercise: Check the results log: what was the call for Cc1cccc(Nc2nc(N[C@@H]3CCCC[C@H]3N)ncc2C(N)=O)c1 ?
Key: true (1)

Exercise: Check the results log: what was the call for O=C(Nc1cccc2c(=O)cc(-c3nn[nH]n3)oc12)c1ccc(OCCCCc2ccccc2)cc1 ?
Key: true (1)

Exercise: Check the results log: what was the call for O=C(O)C1=NC(C(=O)O)CC(C=CN2c3cc(O)c(OC4OC(CO)C(O)C(O)C4O)cc3CC2C(=O)O)=C1 (configuration not stated) ?
Key: false (0)

Exercise: Check the results log: what was the call for COc1ccc(CCN(C)CCCOc2ccc(S(=O)(=O)c3[nH]c4ccccc4c3C(C)C)cc2)cc1OC ?
Key: false (0)

Exercise: Check the results log: what was the call for CN1c2ccccc2C(=O)N2CCc3c([nH]c4ccccc34)C21 (configuration not stated) ?
Key: true (1)

Exercise: Check the results log: what was the call for CC[C@H](NC(=O)[C@H](C)NC)C(=O)N1C[C@@H](O)C[C@H]1Cc1c(-c2[nH]c3cc(F)ccc3c2C[C@H]2C[C@H](O)CN2C(=O)[C@H](CC)NC(=O)[C@H](C)NC)[nH]c2cc(F)ccc12 ?
Key: false (0)

Exercise: Check the results log: what was the call for Cc1cc2c(cc1C1(c3ccc(C(=O)O)cn3)CC1)C(C)(C)CCC2(C)C ?
Key: false (0)

Exercise: Check the results log: what was the call for O=c1[nH]c(=O)n([C@H]2C[C@@H](O)[C@@H](CO)O2)cc1C(F)(F)F ?
Key: true (1)

Exercise: Check the results log: what was the call for N#CC(c1ccnc(NCCc2cccnc2)n1)c1nc2ccccc2s1 (configuration not stated) ?
Key: true (1)

Exercise: Check the results log: what was the call for Nc1ccn([C@@H]2O[C@H](CO)[C@@H](O)[C@H]2O)c(=O)n1 ?
Key: true (1)

Exercise: Check the results log: what was the call for CC(=O)OCC(=O)[C@@]12OC(C)(C)O[C@H]1C[C@H]1[C@@H]3C[C@H](F)C4=CC(=O)C=C[C@]4(C)[C@@]3(F)[C@@H](O)C[C@@]12C ?
Key: false (0)

Exercise: Check the results log: what was the call for N#CC1(c2cccc(C(=O)Nc3cc(Oc4ccc5nc(NC(=O)C6CC6)sc5n4)ccc3F)c2Cl)CC1 ?
Key: true (1)

Exercise: Check the results log: what was the call for C=C1[C@H](n2cnc3c(=O)[nH]c(N)nc32)C[C@H](O)[C@H]1CO ?
Key: true (1)

Exercise: Check the results log: what was the call for CCCCCCOC(=O)N=C(N)c1ccc(NCc2nc3cc(C(=O)N(CCC(=O)OCC)c4ccccn4)ccc3n2C)cc1 ?
Key: true (1)

Exercise: Check the results log: what was the call for N=C1SC(=Cc2ccc(-c3ccc4c(c3)C(=O)NC4=O)o2)C(=O)N1c1ccc(Br)cc1 ?
Key: true (1)

Exercise: Check the results log: what was the call for O=C(O)CCC=CCC[C@@H]1[C@H](N2CCCCC2)[C@@H](O)C[C@@H]1OCc1ccc(-c2ccccc2)cc1 ?
Key: false (0)

Exercise: Check the results log: what was the call for CCCCn1c(=O)n(Cc2ccccc2F)c(=O)c2[nH]c(Cc3ccc(NC(C)=O)cc3)nc21 ?
Key: true (1)

Exercise: Check the results log: what was the call for Cc1cnc(Nc2cccc(CN3CCOCC3)c2)nc1Nc1cccc(S(=O)(=O)NC(C)(C)C)c1 ?
Key: true (1)

Exercise: Check the results log: what was the call for O=C(C=Cc1ccc(O)cc1)c1ccc(O)cc1O ?
Key: true (1)

Exercise: Check the results log: what was the call for CC(C)c1onc(-c2c(Cl)cccc2Cl)c1COc1ccc(C=Cc2cccc(C(=O)O)c2)c(Cl)c1 ?
Key: true (1)

Exercise: Check the results log: what was the call for NCc1c[nH]c(=S)n1[C@H]1CCc2c(F)cc(F)cc2C1 ?
Key: true (1)

Exercise: Check the results log: what was the call for O=C(Nc1ncc(SCCN2CCCC2)s1)[C@]1(c2ccc(S(=O)(=O)C3CC3)cc2)C[C@@H]1C1CCCCC1 ?
Key: true (1)

Exercise: Check the results log: what was the call for C#CCN(C)CC1=Cc2ccccc2Oc2ccccc21 ?
Key: false (0)

Exercise: Check the results log: what was the call for NS(=O)(=O)c1cc(Cl)c(Cl)c(S(N)(=O)=O)c1 ?
Key: false (0)

Exercise: Check the results log: what was the call for O=c1[nH]nc(OCCCc2ccc(Cl)cc2)c(NCc2cccnc2)c1Br ?
Key: true (1)

Exercise: Check the results log: what was the call for CCN(CC)CCCCNc1nc2cc(Cl)c(Cl)cc2nc1-c1ccc(-c2cccs2)s1 ?
Key: true (1)

Exercise: Check the results log: what was the call for Nc1ccc(-c2ccc3ncc4ccc(=O)n(-c5cccc(C(F)(F)F)c5)c4c3c2)cn1 ?
Key: true (1)

Exercise: Check the results log: what was the call for CCC(=C(c1ccc(O)cc1)c1ccc(OCCNC)cc1)c1ccccc1 ?
Key: true (1)

Exercise: Check the results log: what was the call for COc1cc(Cl)cn2c(-c3cccc(NC4CNC4)n3)cnc12 ?
Key: true (1)

----------
experiment: High-throughput drug toxicity screening in the BPDCN cell line Cal-1 (AID 1224825); conditions: Cal-1 BPDCN cell viability, qHTS; at 45.8 µM (top of the series) unless noted;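 also: cells exposed to compounds for 48 h; 100% = DMSO and 0% = bortezomib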
Could you mark each record criterion met if its viability (% of control) falls strictly under 80%, and criterion not met if it equals or exceeds it?

Exercise: Does the reported viability (% of control) of the following molecule sit strictly below 80%? Cc1cc(NC(=O)Nc2ccc(N(C)C)cc2)c2cc(F)cc(F)c2n1
Key: criterion not met

Exercise: Does the reported viability (% of control) of the following molecule sit strictly below 80%? C#C[C@]1(O)CC[C@H]2[C@H]3CCc4cc(OC)ccc4[C@H]3CC[C@@]21C
Key: criterion not met

Exercise: Does the reported viability (% of control) of the following molecule sit strictly below 80%? CCNC(=O)CCCC=CC[C@@H]1[C@H](C=CC(O)CCc2ccccc2)[C@@H](O)C[C@@H]1O (stereo partly drawn)
Key: criterion met

Exercise: Does the reported viability (% of control) of the following molecule sit strictly below 80%? CO[C@H]1/C=C\O[C@@]2(C)Oc3c(C)c(O)c4c(O)c(c(C=NN5CCN(C6CCCC6)CC5)c(O)c4c3C2=O)NC(=O)C(C)=CC=C[C@H](C)[C@H](O)[C@@H](C)[C@@H](O)[C@@H](C)[C@H](OC(C)=O)[C@H]1C
Key: criterion met

Exercise: Does the reported viability (% of control) of the following molecule sit strictly below 80%? COc1cc(N2CCN(C)CC2)ccc1Nc1nc(N)c(C(=O)c2c(Cl)cccc2Cl)s1
Key: criterion met

Exercise: Does the reported viability (% of control) of the following molecule sit strictly below 80%? O=C1CCCC(=O)C1C(=O)c1ccc(C(F)(F)F)cc1[N+](=O)[O-]
Key: criterion not met

Exercise: Does the reported viability (% of control) of the following molecule sit strictly below 80%? CN1N=C(N)c2cn([C@@H]3O[C@H](COP(=O)(O)O)[C@@H](O)[C@@H]3O)c3ncnc1c23
Key: criterion met

Exercise: Does the reported viability (% of control) of the following molecule sit strictly below 80%? COc1cc2c(cc1OC)CC(=O)N(CCCN(C)C[C@H]1Cc3cc(OC)c(OC)cc31)CC2
Key: criterion not met

Exercise: Does the reported viability (% of control) of the following molecule sit strictly below 80%? CC(C)C[C@@H](C(=O)N[C@H](C(=O)OC1CCCC1)c1ccccc1)[C@H](O)C(=O)NO
Key: criterion met

Exercise: Does the reported viability (% of control) of the following molecule sit strictly below 80%? N#CC(c1ccc(Cl)cc1)c1c(Cl)cc(-n2ncc(=O)[nH]c2=O)cc1Cl (stereo not drawn)
Key: criterion met

Exercise: Does the reported viability (% of control) of the following molecule sit strictly below 80%? Oc1ccc(C=Cc2cc(O)cc(O)c2)cc1
Key: criterion met

Exercise: Does the reported viability (% of control) of the following molecule sit strictly below 80%? CN1C(=O)C[C@H](C(=O)N[C@@H](Cc2cnc[nH]2)C(=O)N2CCC[C@@H]2C(N)=O)NC1=O
Key: criterion met

Exercise: Does the reported viability (% of control) of the following molecule sit strictly below 80%? Nc1ccc(-c2ccc3ncc4ccc(=O)n(-c5cccc(C(F)(F)F)c5)c4c3c2)cn1
Key: criterion met

Exercise: Does the reported viability (% of control) of the following molecule sit strictly below 80%? COc1c(C)cnc(Cn2cnc3c(Cl)nc(N)nc32)c1C
Key: criterion met

Exercise: Does the reported viability (% of control) of the following molecule sit strictly below 80%? N#Cc1c(N(CC(=O)O)CC(=O)O)sc(C(=O)O)c1CC(=O)O
Key: criterion met

Exercise: Does the reported viability (% of control) of the following molecule sit strictly below 80%? O=C(NCCCCN1CCOCC1)c1cc2ccccc2o1
Key: criterion not met
